Please respond with reported pIC50 for every item in the list.
system: rabbit platelets; assay: In vitro rabbit platelet aggregation induced by ADP, collagen, AA or A 23187 Ca ionophor; assay type: cell-based; conditions: Table 5, unit inferred; aggregation induced by A 23187; read-out: Antiaggregatory Effect A 23187
Give bare numbers, as −log10 of the molar value.

CCOc1ccc(CC2=NCCc3cc(OCC)c(OCC)cc32)cc1OCC [Nospa] = 3.08

# next molecule below
Check the records and state pIC50 for CCOc1ccc(CC2=NCCc3cc(OCC)c(OCC)cc32)cc1OCC [Depogen] 3.64

====

Please respond with reported IC50 for every item in the list.
test system: rabbit platelets; experiment: In vitro rabbit platelet aggregation induced by ADP, collagen, AA or A 23187 Ca ionophor; assay type: cell-based; conditions: Oryctolagus cuniculus, Platelet, read-out: IC50 rabbit platelet aggregation, ADP
Numbers only, in µM.

O=C(O)c1ccccc1O [Salicylic acid, salicylic acid, reference compound] = 1380

# next compound below
Check the records and state IC50 for COc1ccc(Cc2nccc3cc(OC)c(OC)cc23)cc1OC [Papaverine] 190
